Data provenance is ChEMBL document CHEMBL5506000.

- Tested on: Stenotrophomonas maltophilia
- experimentSummary: Antibacterial activity against Stenotrophomonas maltophilia ATCC 17808 by CLSI protocol based assay
- Assay type: functional
Decision: MIC beneath 4 µg/mL gives yes (1); MIC meeting or exceeding 4 µg/mL gives no (0).

Worked cases, answers included:
compound	qualitativeLabel
CCCCCCCCCCNC(=O)c1ccc[n+](CC2=C(C(=O)[O-])N3C(=O)[C@@H](NC(=O)/C(=N\OC)c4csc(N)n4)[C@H]3SC2)c1.O=C(O)C(F)(F)F	no (0)
CCCCCCCCNC(=O)c1cc[n+](CC2=C(C(=O)[O-])N3C(=O)[C@@H](NC(=O)/C(=N\OC(C)(C)C(=O)O)c4csc(N)n4)[C@H]3SC2)cc1.O=C(O)C(F)(F)F	no (0)
CCCCCCNC(=O)c1cc[n+](CC2=C(C(=O)[O-])N3C(=O)[C@@H](NC(=O)/C(=N\OC(C)(C)C(=O)O)c4csc(N)n4)[C@H]3SC2)cc1.O=C(O)C(F)(F)F	no (0)
CCCCCCNC(=O)c1ccc[n+](CC2=C(C(=O)[O-])N3C(=O)[C@@H](NC(=O)/C(=N\OC)c4csc(N)n4)[C@H]3SC2)c1.O=C(O)C(F)(F)F	yes (1)
CCCCCCCCNC(=O)c1ccc[n+](CC2=C(C(=O)[O-])N3C(=O)[C@@H](NC(=O)/C(=N\OC(C)(C)C(=O)O)c4csc(N)n4)[C@H]3SC2)c1.O=C(O)C(F)(F)F	no (0)
CO/N=C(\C(=O)N[C@@H]1C(=O)N2C(C(=O)[O-])=C(COC(C)=O)CS[C@H]12)c1csc(N)n1.[Na+] [CEFOTAXIME SODIUM]	yes (1)

State whether 4 µg/mL exceeds MIC recorded for `CCCCCCCCCCNC(=O)c1ccc[n+](CC2=C(C(=O)[O-])N3C(=O)[C@@H](NC(=O)/C(=N\OC(C)(C)C(=O)O)c4csc(N)n4)[C@H]3SC2)c1.O=C(O)C(F)(F)F` . no (0)

State whether 4 µg/mL exceeds MIC recorded for `CCCCNC(=O)c1ccc[n+](CC2=C(C(=O)[O-])N3C(=O)[C@@H](NC(=O)/C(=N\OC(C)(C)C(=O)O)c4csc(N)n4)[C@H]3SC2)c1.O=C(O)C(F)(F)F` . yes (1)

State whether 4 µg/mL exceeds MIC recorded for `C[C@@H](O)[C@H]1C(=O)N2C(C(=O)O)=C(S[C@@H]3CN[C@H](C(=O)N(C)C)C3)[C@H](C)[C@H]12` . yes (1)

State whether 4 µg/mL exceeds MIC recorded for `CCCCNC(=O)c1ccc[n+](CC2=C(C(=O)[O-])N3C(=O)[C@@H](NC(=O)/C(=N\OC)c4csc(N)n4)[C@H]3SC2)c1.O=C(O)C(F)(F)F` . yes (1)

State whether 4 µg/mL exceeds MIC recorded for `CCCCCCCCCCNC(=O)c1cc[n+](CC2=C(C(=O)[O-])N3C(=O)[C@@H](NC(=O)/C(=N\OC(C)(C)C(=O)O)c4csc(N)n4)[C@H]3SC2)cc1.O=C(O)C(F)(F)F` . no (0)
